Sourced from ChEMBL document CHEMBL1201862

Biological target: Corticotropin-releasing factor receptor 2/Corticotropin-releasing factor-binding protein (Homo sapiens, UniProt P24387+Q13324)
Sequence (Q13324 whole entry): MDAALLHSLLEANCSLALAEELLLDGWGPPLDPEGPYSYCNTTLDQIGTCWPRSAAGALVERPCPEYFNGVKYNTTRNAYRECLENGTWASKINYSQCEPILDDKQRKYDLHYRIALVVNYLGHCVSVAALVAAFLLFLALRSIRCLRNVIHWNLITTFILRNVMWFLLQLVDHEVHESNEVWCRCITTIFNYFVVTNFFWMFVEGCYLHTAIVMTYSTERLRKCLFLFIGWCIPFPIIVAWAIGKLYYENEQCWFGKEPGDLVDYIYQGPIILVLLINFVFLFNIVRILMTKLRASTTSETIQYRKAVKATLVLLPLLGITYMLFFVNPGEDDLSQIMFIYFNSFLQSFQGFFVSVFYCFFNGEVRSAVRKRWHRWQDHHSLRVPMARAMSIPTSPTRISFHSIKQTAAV
Sequence (P24387 whole entry): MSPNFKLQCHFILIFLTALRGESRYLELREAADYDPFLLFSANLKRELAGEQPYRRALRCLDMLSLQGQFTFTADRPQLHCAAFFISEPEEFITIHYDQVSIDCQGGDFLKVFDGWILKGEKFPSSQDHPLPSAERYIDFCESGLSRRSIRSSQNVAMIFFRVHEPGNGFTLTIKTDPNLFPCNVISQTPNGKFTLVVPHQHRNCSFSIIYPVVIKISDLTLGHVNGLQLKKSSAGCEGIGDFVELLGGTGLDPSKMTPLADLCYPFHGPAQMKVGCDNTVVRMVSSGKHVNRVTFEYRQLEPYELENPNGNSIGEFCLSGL
Test: Dose Response confirmation of uHTS hits for small molecule antagonists of the CRF-binding protein and CRF-R2 receptor complex.
Assay type: functional
Settings: read-out: IC50_Mean
Activity calls are given as the source filed them.
Possible outcomes: 1 for active, -1 for inactive

>>> label("CC(C)(C)OC(=O)N1CCCN(C(=O)Nc2cccc(Cl)c2)CC1")
-1
>>> label("N#Cc1ccc(NC(=O)COC(=O)CSc2nnc(-c3ccc(Cl)cc3)o2)cc1")
-1
>>> label("CCCCNC(=O)CCn1c(=O)c2ccccc2n(Cc2ccccc2C)c1=O")
1
>>> label("COc1ccc(C(=O)COC(=O)CCNS(=O)(=O)c2ccc(NC(C)=O)cc2)c(OC)c1")
-1
>>> label("CN(C(=O)CCS(=O)(=O)c1ccc2c(c1)oc(=O)n2C)C1CCCCC1")
-1

---

IC50 values by entry
Target: Calpain-2 catalytic subunit (Sus scrofa, UniProt P43367)
Sequence (P43367 whole entry): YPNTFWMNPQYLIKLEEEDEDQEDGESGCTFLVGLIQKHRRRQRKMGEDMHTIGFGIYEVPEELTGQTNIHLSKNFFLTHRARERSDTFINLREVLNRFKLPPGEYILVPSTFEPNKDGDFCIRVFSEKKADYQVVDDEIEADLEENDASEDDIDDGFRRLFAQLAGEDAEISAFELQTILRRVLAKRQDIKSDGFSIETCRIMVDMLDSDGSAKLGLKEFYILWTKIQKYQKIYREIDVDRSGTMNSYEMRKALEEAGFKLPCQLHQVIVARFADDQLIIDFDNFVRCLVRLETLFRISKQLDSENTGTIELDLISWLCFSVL
Test: pig calpain II inhibitor potency, dose response, biochemical, fluorogenic peptide substrate (AID 1420)
Format: functional
Activity calls are given as the source filed them.
assay-readout: IC50

>>> experimental_result("COc1ccc(C(=O)Nc2cccc(-c3cc4ccccc4oc3=O)c2)cc1[N+](=O)[O-]")
"12.3 µM (not active)"
>>> experimental_result("C/C(=N\\OCC(=O)NC12CC3CC(CC(C3)C1)C2)c1cc2ccccc2o1")
"8.83 µM (not active)"
>>> experimental_result("COc1cc(-n2c(=O)c3ccccc3n(Cc3cccc(C)c3)c2=O)cc(OC)c1OC")
"19.3 µM (active)"
>>> experimental_result("Cc1ccccc1NC(=S)NCCC(c1ccccc1)c1ccccc1")
"2.48 µM (not active)"
>>> experimental_result("Cc1ccc(NC(S)=NC(C)CCc2ccccc2)cc1C (stereo unspecified)")
"17.3 µM (not active)"
>>> experimental_result("Cn1c(N)c(C(=O)COC(=O)C2CCC(C(C)(C)C)CC2)c(=O)n(C)c1=O (stereo unspecified)")
"10.4 µM (active)"
